meta.source: PubChem BioAssay AID1508601

# tested target: Cellular tumor antigen p53 (Homo sapiens)
# experiment description: nuclear p53 accumulation, HPV+ cells – imaging, p53-positive nuclei imaging, 24 h, 48 h (AID 1508601)
# experimental setup: 24/48 h, measured here: p53 positive nuclei at 24 h, Library stock concentration: 400 uM, stronger effect = higher value
Out of some 5,700 compounds screened, about 85 (1%) were called active. Shown is part of a subset that was picked to be rich in actives.
Give measured p53-positive nuclei, normalised for each item. Keep answers brief.
One number for each entry, in %.

{"compound": "Cc1c(CN2CCN(C(=O)C(C)O)CC2)sc2c(N3CCOCC3)nc(-c3cnc(N)nc3)nc12 (stereo not given)", "measure unit": "%", "p53-positive nuclei, normalised": -0.106}
{"compound": "CS(=O)(=O)c1ccc(C(CC2CCCC2)C(=O)Nc2nccs2)cc1 (stereo not given)", "measure unit": "%", "p53-positive nuclei, normalised": -0.122}
{"compound": "COc1cc(=C2C=c3ccccc3=N2)[nH]c1=Cc1[nH]c(C)cc1C", "measure unit": "%", "p53-positive nuclei, normalised": 72.4}
{"compound": "Cc1ccc(NC(=O)c2ccc(CN3CCN(C)CC3)cc2)cc1Nc1nccc(-c2cccnc2)n1", "measure unit": "%", "p53-positive nuclei, normalised": 0.334}
{"compound": "CS(=O)(=O)N1CCN(Cc2cc3nc(-c4cccc5[nH]ncc45)nc(N4CCOCC4)c3s2)CC1", "measure unit": "%", "p53-positive nuclei, normalised": -0.0433}

Here are 3 compounds. What values of p53-positive nuclei, normalised were reported for them?
1. OCCCNc1cc(-c2ccnc(Nc3cccc(Cl)c3)n2)ccn1
2. CC(NC(=O)c1cc(Cl)ccc1Oc1ccc(F)cc1)c1ccc(C(=O)O)cc1 (stereo not given)
3. Nc1ccccc1NC(=O)c1ccc(CNc2nccc(-c3cccnc3)n2)cc1

[2.63, -0.0227, 0.046]

Provide p53-positive nuclei, normalised for all items below, preserving their order.
1. COc1ccc(-c2nc(N3CCOCC3)c3sc(CN(C)c4ncc(C(=O)NO)cn4)cc3n2)cn1
2. c1cc(NCCc2c[nH]c3ccccc23)cc(Nc2ccncc2)c1

1. 75.3
2. -0.0802

----------
Exercise: for every item that follows, state its recorded p53-positive nuclei, normalised.
# tested target: Cellular tumor antigen p53 (Homo sapiens)
# experiment description: nuclear p53 accumulation, HPV+ cells – imaging, p53-positive nuclei imaging, 24 h, 48 h (AID 1508601)
# experimental setup: 24/48 h, stronger effect = higher value, concentration not given here
Among all 5,700 compounds or so, about 85 (1%) were called active. The sample as a whole holds a higher share of actives than the screen did.
One number for each entry, in %.

For the 5 molecules below, give their p53-positive nuclei, normalised values.
1. COc1cccc2c(C)cc(N3CCC[C@H]3CO)nc12
2. c1ccc(C(OC2CCN(CCCc3nn[nH]n3)CC2)c2ccccc2)cc1
3. O=C1Cc2c([nH]c3ccc(Br)cc23)-c2ccccc2N1
4. CC(C)C[C@H](NC(=O)[C@@H](O)[C@H](N)Cc1ccccc1)C(=O)O
5. O=C(O)/C=C/CCCCCCCCC(=O)O

1. -0.0398
2. 0.0542
3. -0.0157
4. -0.0349
5. 0.0752

What does the record list as p53-positive nuclei, normalised for c1ccc(-c2nc3c(cnn3C3CCCCC3)[nH]2)c(Cn2cccn2)c1 ?
-0.0852

----------
For each of the compounds below, state its p53-positive nuclei, normalised.
# tested target: Cellular tumor antigen p53 (Homo sapiens) (UniProt P04637)
# Sequence (P04637 whole entry, looked up): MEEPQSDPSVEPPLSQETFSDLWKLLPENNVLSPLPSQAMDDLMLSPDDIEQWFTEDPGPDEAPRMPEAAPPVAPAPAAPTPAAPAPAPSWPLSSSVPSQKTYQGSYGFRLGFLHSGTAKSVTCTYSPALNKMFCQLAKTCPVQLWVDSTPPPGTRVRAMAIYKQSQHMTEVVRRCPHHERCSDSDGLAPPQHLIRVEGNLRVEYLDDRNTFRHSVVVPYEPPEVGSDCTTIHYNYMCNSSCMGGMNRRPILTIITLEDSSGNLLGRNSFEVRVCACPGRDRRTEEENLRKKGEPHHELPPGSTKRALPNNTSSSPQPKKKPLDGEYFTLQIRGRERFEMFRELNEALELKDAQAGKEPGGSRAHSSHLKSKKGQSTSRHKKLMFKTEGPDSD
# experiment description: nuclear p53 accumulation, HPV+ cells – imaging, p53-positive nuclei imaging, 24 h, 48 h (AID 1508601)
# experimental setup: 24/48 h, measured here: p53 positive nuclei at 24 h, stronger effect = higher value, concentration not given here
The whole screen tested about 5,700 compounds, of which about 85 (1%) were called active. The sample holds actives, similar compounds and a random draw of the others, so the mix is not that of the screen. Peptide text beside a SMILES is read from it.
Numbers only, in %.

{"compound": "CCCCCCCCCCCCCCCCCC(=O)OCC", "measured endpoint": "p53-positive nuclei, normalised", "measure unit": "%", "measured number": -0.00774}
{"compound": "O=C(O)/C=C/CCCCCCCCC(=O)O", "measured endpoint": "p53-positive nuclei, normalised", "measure unit": "%", "measured number": 0.0107}

I have 8 compounds here; please give me p53-positive nuclei, normalised for each one.
1. Cc1nn(C)cc1-c1ccnc(N2CCCC(c3nc4c(C)cccc4[nH]3)C2)n1 (stereo unspecified)
2. O=C(O)CCNC(=O)c1ccccc1
3. CCCCCCCCCCCCCCP(=O)(O)O
4. COc1cc(C(=O)NS(=O)(=O)c2ccccc2C)ccc1Cc1cn(C)c2ccc(NC(=O)OC3CCCC3)cc12
5. c1ccc(-c2nc3c(cnn3C3CCCCC3)[nH]2)c(Cn2cccn2)c1
6. CC(C)C[C@H](NC(=O)[C@@H](O)[C@H](N)Cc1ccccc1)C(=O)O
7. CC(=O)Nc1ccc(S(=O)(=O)Nc2ccc([N+](=O)[O-])cc2)cc1
8. Nc1ccc(C(=O)O)c(O)c1 (tested in a mixture with another compound)

1. -0.151
2. -0.211
3. -0.0488
4. 0.0267
5. 0.144
6. -0.0296
7. 0.0938
8. 0.00463

List p53-positive nuclei, normalised for every entry below, keeping the order given.
1. CCCCC/C=C\C/C=C\CCCC/C=C\CCCC(=O)O
2. Cn1cc(C2=C(c3cn(CCCSC(=N)N)c4ccccc34)C(=O)NC2=O)c2ccccc21
3. COC(=O)[C@H](Cc1ccccc1)NC(=O)[C@@H](N)CC(=O)O (H-Asp-Phe-OMe)
4. Nc1ccccc1NC(=O)CCCCCCC(=O)Nc1ccccc1
5. COc1cccc2c(C)cc(N3CCC[C@H]3CO)nc12

0.0071
0.487
-0.251
-0.135
0.0977

// each listed compound needs a value for p53-positive nuclei, normalised
1. COc1ccc(CN2CCN(c3nccc(-c4c(C)nn(C)c4C)n3)CC2=O)cc1
2. O=C1OC[C@@H](Cc2cccc(O)c2)[C@@H]1Cc1cccc(O)c1
3. CCCCN=C(N)NO
4. O=C(OC[C@@H]1O[C@H]1c1ccccc1)Oc1ccc([N+](=O)[O-])cc1
5. CCCCCCCCCCCCCCCCOC[C@H](CO)OC(C)=O
6. C[C@H]1O[C@@H](O[C@H]2[C@@H](O)C[C@H](O[C@H]3[C@@H](O)C[C@H](O[C@H]4CC[C@]5(C)C6CC[C@]7(C)[C@@H](C8=CC(=O)OC8)CC[C@]7(O)C6CC[C@@H]5C4)O[C@@H]3C)O[C@@H]2C)C[C@H](O)[C@@H]1O (stereo partly specified)
7. O=C1CCCc2occ(C(=O)N3CCc4[nH]nc(C5CCC5)c4C3)c21

[-0.147, -0.118, -0.0268, -0.0466, 0.0467, 3.09, -0.086]

Working through the 3 compounds below one at a time, give p53-positive nuclei, normalised for each.
1. O=C(CCCCCCC(=O)Nc1ccccc1)NO
2. CCCCc1ccc(N=CNO)c(C)c1
3. Cc1cc(C)c(/C=C2\C(=O)Nc3ccccc32)[nH]1

1: 0.00812; 2: -0.0878; 3: 0.0506

----------
# experiment description: nuclear p53 accumulation, HPV+ cells – imaging, p53-positive nuclei imaging, 24 h, 48 h (AID 1508601)
# experimental setup: 24/48 h, measured here: cell number at 24 h, Library stock concentration: 3.33 mM
Screen size: about 5,700 compounds; about 85 (1%) were called active. Only a selection was taken, and actives are over-represented in it overall.
We use 90% as the dividing line for nuclei count, normalised: on or above the line is rule met, below is rule not met.

{"compound": "Cc1ncc(-c2ccnc(Nc3ccc(S(C)(=O)=O)cc3)n2)n1C(C)C", "classification": "rule not met"}
{"compound": "CC(C)CC(=O)Nc1n[nH]c2c1CN(C(=O)C1CCN(C)CC1)C2(C)C", "classification": "rule not met"}
{"compound": "COc1cc2ncc(-c3ccccc3)nc2cc1OC", "classification": "rule not met"}
{"compound": "CCc1cc2c(cc1CC)CC(NCC(O)c1ccc(O)c3[nH]c(=O)ccc13)C2 (stereo not given)", "classification": "rule met"}
{"compound": "COc1cc(=C2C=c3ccccc3=N2)[nH]c1=Cc1[nH]c(C)cc1C", "classification": "rule not met"}

Evaluate O=Nc1c(-c2c(O)[nH]c3cc(Br)ccc23)[nH]c2ccccc12 : nuclei count, normalised at minimum 90%?
rule met

Moving on to the next compound: Cc1nc(Nc2n[nH]c3c2CN(C(=O)NC(CN(C)C)c2ccccc2)C3(C)C)c2sccc2n1 (stereo not given)
rule not met

Same for CC(C)C(=O)Oc1ccc(CO)cc1C(CCN(C(C)C)C(C)C)c1ccccc1 (stereo not given)
rule met
